Target: KDM6A (UTX) (Homo sapiens)
Assay: biochemical
Settings: read-out: KDM6A (UTX) Inhibition (%) 1 (μM)
MEASURED_ATTRIBUTE: inhibition at 1 µM (%)

Check out these entries, answers already filled in.
COMPOUND | REPORTED_VALUE
Cc1c(O)c(=O)ccn1CCCCCn1cc(-c2ccccn2)nn1 | 15
Cc1c(O)c(=O)ccn1Cc1ccc(Cn2ccc(=O)c(O)c2C)cc1 | 5
Cc1c(O)c(=O)ccn1CCCCCn1cc(-c2ccccc2C(F)(F)F)nn1 | 15
Cc1c(O)c(=O)ccn1CCCCCn1cc(-c2ccc(-c3ccncc3)cc2)nn1 | 8
Cc1c(O)c(=O)ccn1CCn1cc(-c2ccccc2)nn1 | 12
COc1ccccc1-c1cn(CCCCCn2ccc(=O)c(O)c2C)nn1 | 3

1. COc1ccc(-c2cn(CCCCCn3ccc(=O)c(O)c3C)nn2)cc1
2. Cc1c(O)c(=O)ccn1C1CCC(CC2CCC(n3ccc(=O)c(O)c3C)CC2)CC1 (centres unmarked)
Query string: Hey, which is lower on measured inhibition at 1 µM, 1 or 2 ? Reply briefly: the label of your chosen item.
Result string: 1
(1: 4%, 2: 9%)

* * *

Biological target: KDM6A (UTX) (Homo sapiens, UniProt O15550)
Sequence (O15550 whole entry): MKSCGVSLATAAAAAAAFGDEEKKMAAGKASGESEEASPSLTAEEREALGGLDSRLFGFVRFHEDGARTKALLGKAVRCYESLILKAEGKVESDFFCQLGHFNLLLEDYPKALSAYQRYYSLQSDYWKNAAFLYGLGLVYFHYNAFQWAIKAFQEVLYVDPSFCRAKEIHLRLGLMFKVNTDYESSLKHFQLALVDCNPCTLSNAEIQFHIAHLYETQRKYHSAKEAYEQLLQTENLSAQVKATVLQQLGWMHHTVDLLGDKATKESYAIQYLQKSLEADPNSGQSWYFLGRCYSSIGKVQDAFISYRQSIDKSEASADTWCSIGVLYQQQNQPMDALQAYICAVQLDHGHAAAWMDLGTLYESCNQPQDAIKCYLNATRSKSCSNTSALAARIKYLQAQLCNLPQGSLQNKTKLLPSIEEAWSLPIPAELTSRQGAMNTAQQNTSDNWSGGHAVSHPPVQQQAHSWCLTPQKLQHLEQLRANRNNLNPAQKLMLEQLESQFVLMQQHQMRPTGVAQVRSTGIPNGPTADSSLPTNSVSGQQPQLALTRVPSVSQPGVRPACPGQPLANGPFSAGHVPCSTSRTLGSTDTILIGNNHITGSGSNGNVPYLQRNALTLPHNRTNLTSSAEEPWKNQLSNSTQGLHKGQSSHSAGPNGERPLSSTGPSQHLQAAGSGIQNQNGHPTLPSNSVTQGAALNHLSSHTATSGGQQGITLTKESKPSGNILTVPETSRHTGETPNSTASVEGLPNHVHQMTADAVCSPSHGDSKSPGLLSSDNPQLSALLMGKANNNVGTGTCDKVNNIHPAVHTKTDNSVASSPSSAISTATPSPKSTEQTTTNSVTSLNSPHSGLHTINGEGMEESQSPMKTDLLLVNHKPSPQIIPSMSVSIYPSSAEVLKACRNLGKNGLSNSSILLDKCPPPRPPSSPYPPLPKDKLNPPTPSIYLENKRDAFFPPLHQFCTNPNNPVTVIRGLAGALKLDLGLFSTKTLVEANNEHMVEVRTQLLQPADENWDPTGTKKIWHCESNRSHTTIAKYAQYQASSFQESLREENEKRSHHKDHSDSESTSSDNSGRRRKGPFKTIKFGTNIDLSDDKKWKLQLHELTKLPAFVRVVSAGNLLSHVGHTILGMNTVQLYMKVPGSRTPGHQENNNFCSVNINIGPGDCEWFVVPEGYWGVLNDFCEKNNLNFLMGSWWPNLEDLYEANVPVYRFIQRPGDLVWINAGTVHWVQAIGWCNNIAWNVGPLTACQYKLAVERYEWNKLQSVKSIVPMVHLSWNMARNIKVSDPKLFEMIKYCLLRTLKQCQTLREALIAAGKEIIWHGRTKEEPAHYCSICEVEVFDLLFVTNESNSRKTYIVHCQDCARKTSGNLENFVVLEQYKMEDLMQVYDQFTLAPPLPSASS
Experiment: biochemical
Details: read-out: KDM6A (UTX) Inhibition (%) 1 (μM)
MEASURED_ATTRIBUTE: inhibition at 1 µM (%)

Check out these entries, answers already filled in.
COMPOUND | inhibition at 1 µM [%]
COc1cccc(-c2cn(CCCCCn3ccc(=O)c(O)c3C)nn2)c1 | 8
Cc1ccc(-c2cn(CCCCn3ccc(=O)c(O)c3C)nn2)cc1 | 13
CC/C(=C(\c1ccccc1)c1ccc(OCCN(C)Cc2ccc(-c3cn(CCn4ccc(=O)c(O)c4C)nn3)cc2)cc1)c1ccccc1 [Compound 36a] | 9

P. Cc1c(O)c(=O)ccn1CCCCCn1cc(-c2cccc(F)c2)nn1
Q. Cc1c(O)c(=O)ccn1CCCCCn1cc(-c2ccc(F)cc2)nn1
Query string: Hey, which is lower on measured inhibition at 1 µM, P or Q ? Reply briefly: the label of your chosen item.
Result string: P

* * *

Tested on: MDA-MB-231 (TNBC BCa)
Assay: Cell viability assay (MTS), MDA-MB-231
Type: cell-based
Conditions: 72 h, NI = no inhibition, read-out: Antiproliferative Activity IC50 (μM) MDA-MB-231
MEASURED_ATTRIBUTE: IC50 (µM)

SMILES | UNIT_TEXT | IC50
Cc1c(O)c(=O)ccn1CCCCCn1cc(-c2ccc(N(C)C)cc2)nn1 | µM | 12.5

A. Cc1c(O)c(=O)ccn1CCCCCn1cc(-c2ccccc2F)nn1
B. COc1ccccc1-c1cn(CCCCn2ccc(=O)c(O)c2C)nn1
Query string: Hey, which is lower on measured IC50, A or B ? Reply briefly: the label of your chosen item.
Result string: B
(B: 9.6 µM, A: 18.3 µM)

* * *

Biological target: UniProt:O15550
Conditions: compound at 10 μM
MEASURED_ATTRIBUTE: KDM6A (UTX) Inhibition (%) 10 (μM)

COMPOUND | KDM6A (UTX) Inhibition (%) 10 (μM)
Cc1c(O)c(=O)ccn1CCCCn1ccc(=O)c(O)c1C [Compound 3a] | 100
Cc1c(O)c(=O)ccn1CCCCCCn1ccc(=O)c(O)c1C [Compound 3c] | 100
Cc1c(O)c(=O)ccn1CCCCCn1ccc(=O)c(O)c1C [Compound 3b] | 99
Cc1c(O)c(=O)ccn1CCCCCn1cc(-c2ccccc2F)nn1 [Compound 2m] | 100
Cc1c(O)c(=O)ccn1CCCCCCCn1ccc(=O)c(O)c1C [Compound 3d] | 100

* * *

Biological target: KDM6A (UTX) (Homo sapiens)
Details: compound at 1 μM
MEASURED_ATTRIBUTE: KDM6A (UTX) Inhibition (%) 1 (μM)

SMILES | TARGET | KDM6A (UTX) Inhibition (%) 1 (μM)
Cc1c(O)c(=O)ccn1CCCCCn1cc(-c2ccccc2F)nn1 | KDM6A (UTX) (Homo sapiens) | 16
Cc1c(O)c(=O)ccn1CCCCCCCn1ccc(=O)c(O)c1C | KDM6A (UTX) (Homo sapiens) | 3
Cc1c(O)c(=O)ccn1CCCCCCn1ccc(=O)c(O)c1C | KDM6A (UTX) (Homo sapiens) | 2

I. Cc1c(O)c(=O)ccn1CCCCCn1ccc(=O)c(O)c1C
II. Cc1c(O)c(=O)ccn1CCCCn1ccc(=O)c(O)c1C
Query string: In the pair I and II , the larger recorded KDM6A (UTX) Inhibition (%) 1 (μM) belongs to which? Reply briefly: the label of your chosen item.
Result string: II

* * *

Biological target: KDM6A (UTX) (Homo sapiens)
Experiment: biochemical
Settings: read-out: KDM6A (UTX) Inhibition (%) 10 (μM)
MEASURED_ATTRIBUTE: inhibition at 10 µM (%)

COMPOUND | UNIT_TEXT | REPORTED_VALUE
Cc1c(O)c(=O)ccn1CCCCCn1cc(-c2ccccn2)nn1 [Compound 2s] | % | 99
COc1cccc(-c2cn(CCCCCn3ccc(=O)c(O)c3C)nn2)c1 [Compound 2j] | % | 100
COc1ccc(-c2cn(CCCCCn3ccc(=O)c(O)c3C)nn2)cc1 [Compound 2l] | % | 100
Cc1c(O)c(=O)ccn1CCCCCn1cc(-c2ccc(-c3ccncc3)cc2)nn1 [Compound 2t] | % | 99
Cc1ccc(-c2cn(CCCCn3ccc(=O)c(O)c3C)nn2)cc1 [Compound 2e] | % | 100
COc1ccccc1-c1cn(CCCCCn2ccc(=O)c(O)c2C)nn1 [Compound 2h] | % | 99
Cc1c(O)c(=O)ccn1CCCCCn1cc(-c2ccccc2C(F)(F)F)nn1 [Compound 2p] | % | 99
Cc1c(O)c(=O)ccn1C1CCC(CC2CCC(n3ccc(=O)c(O)c3C)CC2)CC1 (stereo not shown) [Compound 3g] | % | 100
Cc1c(O)c(=O)ccn1CCn1cc(-c2ccccc2)nn1 [Compound 1a] | % | 96
CC/C(=C(\c1ccccc1)c1ccc(OCCN(C)Cc2ccc(-c3cn(CCn4ccc(=O)c(O)c4C)nn3)cc2)cc1)c1ccccc1 [Compound 36a] | % | 100
Cc1c(O)c(=O)ccn1CCCCCn1cc(-c2cccc(F)c2)nn1 [Compound 2n] | % | 100
Cc1c(O)c(=O)ccn1Cc1ccc(Cn2ccc(=O)c(O)c2C)cc1 [Compound 3f] | % | 100
Cc1c(O)c(=O)ccn1CCCCCn1cc(-c2ccc(F)cc2)nn1 [Compound 2o] | % | 100
